# key: entry, value: IC50
test system: HME1 (normal mammary epithelial cell); assay: IC50 in HME1 (normal mammary epithelial cell); assay type: cell-based
Respond with the bare value in µM.

lineNotation: Oc1ccc(C=Cc2cc(O)cc(O)c2)cc1
IC50, µM: 189

Next up:
Given the entry c1ccc2c(Cc3c[nH]c4ccccc34)c[nH]c2c1 , what IC50 was observed with HME1 (normal mammary epithelial cell)?
51.2

====

system: HCT116; test: Growth inhibition IC50 in HCT116 cells, control vs TiPARP knockdown; type: cell-based; settings: Homo sapiens, HCT-116, HCT116, Ctrl
measurementKind: IC50 (µM)
Respond with the bare value in µM.

Given the entry COc1ccc(-c2coc3cc(O)cc(O)c3c2=O)cc1 , what IC50 was observed with HCT116?
30

====

# key: entry, value: pIC50
test system: BT549 (ER negative); assay: IC50 in BT549 (ER negative) cell line; type: cell-based; settings: Homo sapiens, BT-549
As a rule, pIC50 stands for the negative log10 of the concentration, concentration in M.

compound: Oc1ccc(C=Cc2cc(O)cc(O)c2)cc1 [Resveratrol, resveratrol]
quantitativeReadout: 4.64

Which pIC50 reading was recorded for the compound c1ccc2c(Cc3c[nH]c4ccccc34)c[nH]c2c1 [Diindolylmethane, diindolylmethane] ?
4.49
